src = patent US20260242735A1

Biological target: human CD33 L134I (human, UniProt P20138 18-364)
Sequence (P20138 18-364 L134I limits assumed): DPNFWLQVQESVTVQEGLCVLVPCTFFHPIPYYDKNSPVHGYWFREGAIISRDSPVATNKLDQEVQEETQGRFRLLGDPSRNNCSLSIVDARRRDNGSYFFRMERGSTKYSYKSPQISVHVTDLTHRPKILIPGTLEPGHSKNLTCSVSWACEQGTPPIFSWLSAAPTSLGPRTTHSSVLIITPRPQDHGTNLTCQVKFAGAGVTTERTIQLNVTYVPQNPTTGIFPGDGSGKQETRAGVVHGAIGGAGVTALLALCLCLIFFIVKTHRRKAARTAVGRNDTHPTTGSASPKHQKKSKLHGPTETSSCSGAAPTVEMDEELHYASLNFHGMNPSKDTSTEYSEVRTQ
Test: flow cytometry, HEK293-T, IgG;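 note: CD33 point mutants transiently expressed, antibody binding measured by fluorescence in duplicate, background subtracted and scaled to binding on wild-type CD33 as 100%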
parameter.measured: Mean % WT Binding
Remember to quote the unit after the number.

Which Mean % WT Binding value is on record for Refmab #2 (antibody, human IgG1, V domains shown, tested in IgG format) VH: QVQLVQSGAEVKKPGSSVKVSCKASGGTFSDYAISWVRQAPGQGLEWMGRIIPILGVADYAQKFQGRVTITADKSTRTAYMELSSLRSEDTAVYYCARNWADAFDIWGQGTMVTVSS VL: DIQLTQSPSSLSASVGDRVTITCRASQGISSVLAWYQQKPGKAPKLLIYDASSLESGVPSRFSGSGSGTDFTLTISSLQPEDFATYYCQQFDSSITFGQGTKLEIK ?
105 % WT binding

Which Mean % WT Binding value is on record for Refmab #1 (antibody, human IgG1, V domains shown, tested in IgG format; also called hP67.6) VH: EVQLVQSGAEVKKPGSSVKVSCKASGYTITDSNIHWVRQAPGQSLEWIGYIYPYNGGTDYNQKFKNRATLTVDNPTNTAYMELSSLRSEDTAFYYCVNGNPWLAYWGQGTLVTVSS VL: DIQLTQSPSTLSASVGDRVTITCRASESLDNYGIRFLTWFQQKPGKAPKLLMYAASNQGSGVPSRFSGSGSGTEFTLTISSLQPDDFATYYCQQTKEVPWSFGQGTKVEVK ?
106 % WT binding

# context switch: different binder, same Mean % WT Binding
Which Mean % WT Binding value is on record for Refmab #3 (antibody, human IgG1, V domains shown, tested in IgG format) VH: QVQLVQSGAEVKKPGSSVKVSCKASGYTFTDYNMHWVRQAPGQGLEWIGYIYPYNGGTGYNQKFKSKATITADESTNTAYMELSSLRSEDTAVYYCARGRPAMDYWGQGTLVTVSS VL: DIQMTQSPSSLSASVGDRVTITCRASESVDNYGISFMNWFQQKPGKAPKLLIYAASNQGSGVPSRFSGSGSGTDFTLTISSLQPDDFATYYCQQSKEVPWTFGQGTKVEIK ?
108 % WT binding
